- experimental.protocol: Uninfected HeLa-ACE2 24 h live/dead cytotoxicity counter screen
- Type: cell-based, human
- measurement.conditions: human, uninfected HeLa-ACE2 cells, unrounded geometric mean; read-out: HeLa-ACE2 uninfected cytotoxicity CC50 GeoMean
Reported CC50 at 24 h values for a set of compounds
Kindly answer with a numeric value in nM, unit omitted.

[ask] CC50 at 24 h for "COC(=O)[C@]12CCC(C)(C)C[C@H]1[C@H]1C(=O)C=C3[C@@]4(C)C=C(C#N)C(=O)C(C)(C)[C@@H]4CC[C@@]3(C)[C@]1(C)CC2" ?
[reply] 3100

[ask] Request the reported CC50 at 24 h associated with "C=C(C)[C@]12C[C@@H](C)[C@@]34O[C@](Cc5ccccc5)(O[C@@H]1[C@@H]3C=C(COC(=O)Cc1ccc(O)c(OC)c1)C[C@]1(O)C(=O)C(C)=C[C@@H]41)O2"
[reply] 7170

[ask] Would you kindly share the measured CC50 at 24 h for "Cn1c(C#N)ccc1-c1ccc2c(c1)C(C)(C)OC(=S)N2" ?
[reply] 128

[ask] Look up CC50 at 24 h for this compound: "CC[C@H]1CN2CCc3cc(OC)c(OC)cc3[C@@H]2C[C@@H]1C[C@H]1NCCc2cc(O)c(OC)cc21"
[reply] 212

----------
- experimental.protocol: Uninfected HeLa-ACE2 24 h live/dead cytotoxicity counter screen
- Format: cell-based, human
- measurement.conditions: human, uninfected HeLa-ACE2 cells, reconfirmed hits; read-out: HeLa-ACE2 Uninf. cells CC50
Counter-ions that a name gives are not always drawn.
endpoint.name: CC50 at 24 h (µM)
Hi! Could you send only the number? It should be in µM, unit omitted.

Solved entries (count: 2):
CC(C)(C)Cn1c(N)nc2ccc(-c3[nH]c(C(C)(C)C)nc3-c3ccc(F)cc3)nc21 [Ralimetinib mesylate/LY2228820, Ralimetinib mesylate] | 27.4
COC(=O)[C@]12CCC(C)(C)C[C@H]1[C@H]1C(=O)C=C3[C@@]4(C)C=C(C#N)C(=O)C(C)(C)[C@@H]4CC[C@@]3(C)[C@]1(C)CC2 [Bardoxolone methyl] | 3.1

Could you now look at the following compound, please?
[ask] Would you kindly share the measured CC50 at 24 h for CCC(CC)COC(=O)[C@H](C)N[P@](=O)(OC[C@H]1O[C@@](C#N)(c2ccc3c(N)ncnn23)[C@H](O)[C@@H]1O)Oc1ccccc1 [Remdesivir] ?
[reply] 9.97

----------
- experimental.protocol: Uninfected HeLa-ACE2 24 h live/dead cytotoxicity counter screen
- Format: cell-based, human
- measurement.conditions: human, uninfected HeLa-ACE2 cells; read-out: HeLa-ACE2 uninfected cytotoxicity CC50 GeoMean
endpoint.name: CC50 at 24 h

// solved cases for CC50 at 24 h follow
COc1cc(C[C@H]2c3cc(OC)c(OC)cc3CCN2C)c(Oc2cc3c(cc2OC)-c2c(OC)c(OC)cc4c2[C@H](C3)N(C)CC4)cc1OC [Thalicarpine] | > 26.6 µM
COc1ccc2c(O[C@@H]3C[C@H]4C(=O)N[C@]5(C(=O)NS(=O)(=O)C6CC6)C[C@H]5/C=C\CCCCN(C)C(=O)[C@@H]4C3)cc(-c3nc(C(C)C)cs3)nc2c1C [Simeprevir] | > 22.2 µM

--- query ---
[ask] Name the recorded CC50 at 24 h for COc1ccc2c(c1)[C@]1(C[C@H]1c1ccc3c(/C=C/c4ccc(CN5C[C@@H](C)O[C@@H](C)C5)cc4)n[nH]c3c1)C(=O)N2 [CFI-400945] .
[reply] 7.18 µM

----------
Documented HeLa-ACE2 uninfected cytotoxicity Sinf Average across a set of molecules
- System: HeLa-ACE2 cells
- experimental.protocol: Uninfected HeLa-ACE2 24 h live/dead cytotoxicity counter screen
- Assay type: cell-based, human
- measurement.conditions: curve plateau at infinite concentration
Structures can show the parent of a compound that is named as a salt.
Report as a plain number; the unit % is understood.

See these solved cases before continuing.
COc1cc2c(Nc3ccc(Cl)c(Cl)c3F)ncnc2cc1OC[C@@H]1C[C@@H]2CN(C)C[C@@H]2C1 | -100
N#Cc1c(N)nc(N)nc1N[C@H](c1nc2c(F)ccc(Cl)c2c(=O)n1-c1cccnc1)C1CC1 | -100
COC(CNCC(C)C)COc1c(C)csc1C(=O)CCc1ccccc1 (centres unmarked) | -100
CN(C)CC1=C[CH]([Fe][CH]2C=CC=C2)C=C1CNc1ccnc2cc(Cl)ccc12 (centres unmarked) | -100
Nc1ncnc2c1nc(Cl)n2[C@@H]1O[C@H](CO)[C@@H](O)[C@H]1O | -87

[ask] // returns reported HeLa-ACE2 uninfected cytotoxicity Sinf Average for input CCCCCCOC(=O)NC(=N)c1ccc(NCc2nc3cc(C(=O)N(CCC(=O)OCC)c4ccccn4)ccc3n2C)cc1 [Dabigatran etexilate mesilate]
[reply] -97

[ask] I have this molecule here, "COc1ccc2cc1Oc1ccc(cc1)C[C@H]1c3c(cc4c(c3Oc3cc5c(cc3OC)CCN(C)[C@@H]5C2)OCO4)CCN1C" , and I need its recorded HeLa-ACE2 uninfected cytotoxicity Sinf Average.
[reply] -100

[ask] Return reported HeLa-ACE2 uninfected cytotoxicity Sinf Average; argument: "COc1ccc2c(c1)[C@]1(C[C@H]1c1ccc3c(/C=C/c4ccc(CN5C[C@@H](C)O[C@@H](C)C5)cc4)n[nH]c3c1)C(=O)N2"
[reply] -100

[ask] Which value of HeLa-ACE2 uninfected cytotoxicity Sinf Average has been reported for CCc1ccc2c(c1)N(CC(C)CN(C)C)c1ccccc1S2 (centres unmarked) [Ethylisobutrazine hydrochloride] in the records?
[reply] -100

[ask] Give its HeLa-ACE2 uninfected cytotoxicity Sinf Average value. Item: "COC(=O)[C@H]1[C@H]2C[C@@H]3c4[nH]c5cc(OC)ccc5c4CCN3C[C@H]2C[C@@H](OC(=O)c2cc(OC)c(OC)c(OC)c2)[C@@H]1OC"
[reply] -100

[ask] What value of HeLa-ACE2 uninfected cytotoxicity Sinf Average has been recorded for this entry: "Oc1ccc(Nc2ccnc3cc(Cl)ccc23)cc1CN1CCCC1"
[reply] -100

[ask] Recorded HeLa-ACE2 uninfected cytotoxicity Sinf Average of "CN1[C@@H]2CC[C@H]1C[C@@H](N1Cc3ccc4ccccc4c3C1=O)C2" , please.
[reply] -100

[ask] What value of measured HeLa-ACE2 uninfected cytotoxicity Sinf Average is listed for "N#Cc1ccc2c(c1)[C@H]1CN(CCCCNC(=O)c3ccc(-c4ccccc4)cc3)C[C@@H]1CO2" ?
[reply] -100

[ask] Need HeLa-ACE2 uninfected cytotoxicity Sinf Average of CC(C)(C)Cn1c(N)nc2ccc(-c3[nH]c(C(C)(C)C)nc3-c3ccc(F)cc3)nc21 [Ralimetinib mesylate/LY2228820, Ralimetinib mesylate] , thanks.
[reply] -99

----------
- experimental.protocol: in vitro
- measurement.conditions: human
endpoint.name: CC50

[ask] Name the recorded CC50 for CC[C@H]1OC(=O)[C@H](C)[C@@H](O[C@H]2C[C@@](C)(OC)[C@@H](O)[C@H](C)O2)[C@H](C)[C@@H](O[C@@H]2O[C@H](C)C[C@H](N(C)C)[C@H]2O)[C@](C)(O)C[C@@H](C)CN(C)[C@H](C)[C@@H](O)[C@]1(C)O [Azithromycin] .
[reply] > 39.8 µM

----------
- Tested on: HEK293T
- measurement.conditions: human, 72 h
Reported HEK293T 72-hour cytotoxicty Sinf Average values for the following compounds.
Respond with the bare value in %.

Please review the entries below; each comes with its answer.
COc1ccc2c(O[C@@H]3C[C@H]4C(=O)N[C@]5(C(=O)NS(=O)(=O)C6CC6)C[C@H]5/C=C\CCCCN(C)C(=O)[C@@H]4C3)cc(-c3nc(C(C)C)cs3)nc2c1C [Simeprevir] | -102
Oc1ccc(Nc2ccnc3cc(Cl)ccc23)cc1CN1CCCC1 [Amopyroquine] | -103
CCCCC1CCc2cc(O)cc3c(CCN4CCN(c5cc(C)ccn5)CC4)c(C)n1c23 (centres unmarked) [KC 11404] | -100

[ask] I would be grateful if you could share the reported HEK293T 72-hour cytotoxicty Sinf Average for COc1ccc2c(c1)[C@]1(C[C@H]1c1ccc3c(/C=C/c4ccc(CN5C[C@@H](C)O[C@@H](C)C5)cc4)n[nH]c3c1)C(=O)N2 [CFI-400945] .
[reply] -95

[ask] Request the reported HEK293T 72-hour cytotoxicty Sinf Average associated with O=C(CCCN1CCN(c2ccc(F)cc2)CC1)NC1c2ccccc2CSc2ccccc21 (centres unmarked) [Monatepil]
[reply] -46

[ask] Could you tell me which HEK293T 72-hour cytotoxicty Sinf Average is on file for N#Cc1ccc2c(c1)[C@H]1CN(CCCCNC(=O)c3ccc(-c4ccccc4)cc3)C[C@@H]1CO2 [S-33084] ?
[reply] -100

----------
- System: SARS-CoV-2
- experimental.protocol: microbe, parasite or virus in culture
- Type: cell-based
- measurement.conditions: Severe acute respiratory syndrome coronavirus 2, HeLa-ACE2, 24 h, curve plateau at infinite concentration; read-out: HeLa-ACE2 CoV-2 Sinf Average
Counter-ions that a name gives are not always drawn.
endpoint.name: Emax (%)
Write the value in % as a bare number.

Answered cases to consult:
CN1CCN(c2ccc(C(=O)NCc3cnc(C#N)nc3NCC(C)(C)C)cc2)CC1 | 101
Cc1cccc(/C=N/Nc2cc(N3CCOCC3)nc(OCCc3ccccn3)n2)c1 [Apilimod - control] | 95
CCC(CC)COC(=O)[C@H](C)N[P@](=O)(OC[C@H]1O[C@@](C#N)(c2ccc3c(N)ncnn23)[C@H](O)[C@@H]1O)Oc1ccccc1 | 100

[ask] Entry CN1CC2c3ccccc3Oc3ccc(Cl)cc3C2C1 (stereo not drawn) [Asenapine maleate] has what Emax?
[reply] 97

[ask] Which Emax value belongs to CCCCCCOC(=O)NC(=N)c1ccc(NCc2nc3cc(C(=O)N(CCC(=O)OCC)c4ccccn4)ccc3n2C)cc1 [Dabigatran etexilate mesilate] ?
[reply] 100

[ask] # query: Emax of entry "CN1[C@@H]2CC[C@H]1C[C@@H](N1Cc3ccc4ccccc4c3C1=O)C2"
[reply] 100

[ask] Tell me the measured Emax of "COc1ccc2cc1Oc1ccc(cc1)C[C@H]1c3c(cc4c(c3Oc3cc5c(cc3OC)CCN(C)[C@@H]5C2)OCO4)CCN1C" , please.
[reply] 98

[ask] Using the record for "Nc1ncnc2c1nc(Cl)n2[C@@H]1O[C@H](CO)[C@@H](O)[C@H]1O" , report its Emax.
[reply] 98

[ask] Value lookup for Emax; key = COC(CNCC(C)C)COc1c(C)csc1C(=O)CCc1ccccc1 (stereo not drawn)
[reply] 100

[ask] Please give the measured Emax for this molecule: "NC1(c2ccc(-c3nc4ccn5c(=O)[nH]nc5c4cc3-c3ccccc3)cc2)CCC1"
[reply] 99

[ask] Look at this molecule and give its reported Emax. O=C(CCCN1CCN(c2ccc(F)cc2)CC1)NC1c2ccccc2CSc2ccccc21 (stereo not drawn) [Monatepil]
[reply] 100

[ask] Can you look up the measured Emax of "CCN(CC)Cc1cc(Nc2ccnc3cc(Cl)ccc23)ccc1O" for me?
[reply] 102

[ask] Form field: reported Emax of "CNC(=O)c1cc(Oc2ccc(NC(=O)Nc3ccc(Cl)c(C(F)(F)F)c3)cc2)ccn1"
[reply] 100

[ask] What value of Emax has been recorded for this entry: COC(=O)C1=C(C)NC(C)=C(C(=O)OCCN2CCN(C(c3ccccc3)c3ccccc3)CC2)C1c1cccc([N+](=O)[O-])c1 (stereo not drawn)
[reply] 100

[ask] Sample "COc1cc2c(Nc3ccc(Cl)c(Cl)c3F)ncnc2cc1OC[C@@H]1C[C@@H]2CN(C)C[C@@H]2C1" — what was its Emax?
[reply] 101
